combination Emax reference
- Test system: WM793B (Melanoma)
- assay_remarks: combination Emax (second highest fraction inhibited in the dose matrix, 72 h); higher = more inhibition; extreme values may be limits of the assay
recorded_metric: combination Emax

C=CCn1c(=O)c2cnc(Nc3ccc(N4CCN(C)CC4)cc3)nc2n1-c1cccc(C(C)(C)O)n1 [AZD1775] + O=C(c1cc(Cc2n[nH]c(=O)c3ccccc23)ccc1F)N1CCN(C(=O)C2CC2)CC1 [Olaparib] (first compound max 1 µM, partner max 10 µM)	0.501
CN(CCO)CC[C@H](CSc1ccccc1)Nc1ccc(S(=O)(=O)NC(=O)c2ccc(N3CCC([C@@H](O)c4ccccc4-c4ccc(Cl)cc4)CC3)cc2)cc1S(=O)(=O)C(F)(F)F [AZD4320] + C=CCn1c(=O)c2cnc(Nc3ccc(N4CCN(C)CC4)cc3)nc2n1-c1cccc(C(C)(C)O)n1 [AZD1775] (first compound max 1 µM, partner max 1 µM)	0.622
